Origin of measurements: the RNAGym collection of RNA variant scans (doi:10.7554/elife.80360)

B1: Twister Ribozyme (parent)
chain: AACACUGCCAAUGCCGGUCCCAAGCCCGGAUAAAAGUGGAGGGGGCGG

Variants of: B1
test: self-cleavage, relative activity (ratio to wild type); higher = more cleavage; co-transcriptional
I'd be grateful if you could share measured self-cleavage for these entries.

For the variant AACACUGCCAAUGCCGGUCCCAGCCCCGGAUAAAAGUGGAGGGGGCGG [A23G G24C] , what self-cleavage is on record?
0.0875

May I ask what self-cleavage has been recorded for AACACUGCCAAUGCCGGUCCCAAGCCCGCAUUAAAGUGGAGGGGGCGG [G29C A32U] ?
0.443

Could you tell me which self-cleavage is on file for UACACUGCCAAUGCCGGUCCCAAGCCCGGAUAAAAGUGAAGGGGGCGG [A1U G39A] ?
0.0588

Query (variant): AACACUGCCAAUGUCGGGCCCAAGCCCGGAUAAAAGUGGAGGGGGCGG [C14U U18G] ; field requested: self-cleavage
0.0637

// returns reported self-cleavage for input AACACUGCCAAUGCCGCUCCCAAGCCCGGAUAAAAGUGGACGGGGCGG [G17C G41C]
0.104

Find the recorded self-cleavage belonging to AACACUGCCAAUGCCGGUUCCAAGCCCGGAUUAAAGUGGAGGGGGCGG [C19U A32U] and report it.
1.02

I have this variant here, AACACUGCCCAUGCCGGUCCCAAGCCCGGAUAAAAGUGGAGGGGCCGG [A10C G45C] , and I need its recorded self-cleavage.
0.661

So what does the record say about self-cleavage for AAUACUGCCAAUGCCGGUCCCAAGUCCGGAUAAAAGUGGAGGGGGCGG [C3U C25U] ?
0.238

Query: self-cleavage; subject: AACACUGCCAAUGCCGGUCGCAAGCCCGGAUAAAAGUGGAGCGGGCGG [C20G G42C]
0.791

Consider the variant AACACUGCCAAUGCCGGUCCCGAGCCCGGAUAAAAGUGGAGGGGCCGG [A22G G45C] and give its measured self-cleavage.
0.124

So what does the record say about self-cleavage for AACACUGCCAAUGCCGGUCACAAGCCCGGAUAGAAGUGGAGGGGGCGG [C20A A33G] ?
0.116

Can you share its self-cleavage? I mean this variant: AACACUGCCAAUGCCGGUCCCAAGCCCGGAUAAAUGUGGAGGGGUCGG [A35U G45U]
0.812

# input variant: AACACUGCCAAAGCCGGUCCCAAGCCCGGAGAAAAGUGGAGGGGGCGG [U12A U31G] ; wanted: its self-cleavage
0.961

Param item = AACACUGCCAAUGCCGGUCCCAAGCCCGGAUUAAAGUUGAGGGGGCGG [A32U G38U] ; retrieve measured self-cleavage.
0.94

Give its self-cleavage value. Item: AACACUGCCAGUGCCGGUCCCCAGCCCGGAUAAAAGUGGAGGGGGCGG [A11G A22C]
0.904

Reported self-cleavage, variant AACACUGCCAAUGCCGGUCCCAAGCCCGGAUAAAAGUGUAGGGGGCAG [G39U G47A] : ____
0.14

Dear colleague, I am looking for the recorded self-cleavage of the following variant: AACACUGCCAAUGCCGGUCCCAAGCCCGGAUAAAAGGGGAGAGGGCGG [U37G G42A]
0.171

Fill blank: measured self-cleavage of the variant AACACUGCCAAGGCCGGUCCCAAGCCCGGAUAAAAGUGCAGGGGGCGG [U12G G39C] is ____.
0.137

Param item = CACACUGCCAAUGCCGGUCCCAAGACCGGAUAAAAGUGGAGGGGGCGG [A1C C25A] ; retrieve measured self-cleavage.
0.148

# self-cleavage lookup, item AACACUGCCAUUGCCGGUCCCGAGCCCGGAUAAAAGUGGAGGGGGCGG [A11U A22G]
0.399

Value lookup for self-cleavage; key = GACACUGCCAAUGCCGGUCCCAAGCCCGGAGAAAAGUGGAGGGGGCGG [A1G U31G]
0.533

Please report the recorded self-cleavage for AACACUGCCAAUGCCGGUCCCAAGCCUGGAUGAAAGUGGAGGGGGCGG [C27U A32G] .
0.697

self-cleavage lookup needed for AACACUGCCAAUGCCGGUCCCAAGCCCGGAUAAAUGUGGAGGGGGCGU [A35U G48U] , thanks.
1.17

// self-cleavage lookup, key: AACACGGCCAAUGCCGAUCCCAAGCCCGGAUAAAAGUGGAGGGGGCGG [U6G G17A]
0.075

GET /values?readout=self-cleavage&item= AACACUGCCAAUGCCGGUCCCAAGCCCGUAUAAAAGCGGAGGGGGCGG [G29U U37C]
0.444

Item AACACUGCCAAUGCCGGUCACAAGCCCGGAUAAAAGGGGAGGGGGCGG [C20A U37G] has what recorded self-cleavage?
0.109

// returns reported self-cleavage for input AACACUGCCAAUACCGGUCCCAAGCCCGGAUAAUAGUGGAGGGGGCGG [G13A A34U]
0.64

Given AACACUGCCAAUGCCGGCCCCAAGCCCGGAUAAAAGUGGAGGGGGUGG [U18C C46U] , state its recorded self-cleavage.
0.599

Entry AACACUGCCAAUGCCGGUACCAAGCCCGGAUAAUAGUGGAGGGGGCGG [C19A A34U] : reported self-cleavage = ?
0.116

Query (variant): AACACUGCCAAUGCCGGCCCCAAGCCCGGAUAAAAGUGGAGCGGGCGG [U18C G42C] ; field requested: self-cleavage
0.114

Bench note: what self-cleavage did AACACUGCCAAUGCCGGUCACAAGCCCGGAUAAACGUGGAGGGGGCGG [C20A A35C] show?
0.191

Bench note: what self-cleavage did AACACUGCCAAUGCCGGUCCCAAGUCCGGAUAAGAGUGGAGGGGGCGG [C25U A34G] show?
0.487

Data request, read-out self-cleavage, for AACACUGGCGAUGCCGGUCCCAAGCCCGGAUAAAAGUGGAGGGGGCGG [C8G A10G]
0.592

Find the recorded self-cleavage belonging to AACACUGCCAAUGCCGGUCCCAAGCCCGGCUAAAAGUGGAGGGGUCGG [A30C G45U] and report it.
0.573

Value lookup for self-cleavage; key = AAUACUGCCAAUGCCGGUCCCAAGCCCGGAUAAAAGUGGAGGGGGCUG [C3U G47U]
0.513

Field request: self-cleavage | item: AACGCUGCCAAUGCCGGUCCCAAGCCCGGAUAAAAUUGGAGGGGGCGG [A4G G36U]
0.164

Would you mind telling me what self-cleavage value was observed for AACACGGCCAAUGGCGGUCCCAAGCCCGGAUAAAAGUGGAGGGGGCGG [U6G C14G] ?
0.0983

Name the reported self-cleavage value associated with the variant AACGCUGCCAAUGCCGGUCCCAAGCCCGGAUAAAAGUGAAGGGGGCGG [A4G G39A]
0.322

What self-cleavage value was documented for this variant, AACAUUGCCAAUGCCGGUCCCAAUCCCGGAUAAAAGUGGAGGGGGCGG [C5U G24U] ?
0.0614

# get_value(readout='self-cleavage', item= AACACUGCCGAUGCCGGUCCCAAACCCGGAUAAAAGUGGAGGGGGCGG [A10G G24A] )
0.178

Item AACACUGCCAAUGCCGGUCCUAAGCGCGGAUAAAAGUGGAGGGGGCGG [C21U C26G] has what recorded self-cleavage?
0.0581

Consider the variant shown here: AACACGGCCAAUGCCGGUUCCAAGCCCGGAUAAAAGUGGAGGGGGCGG [U6G C19U] What is its recorded self-cleavage?
0.264

Query: self-cleavage; subject: CACACUGCCAAUGCCGGUCCCACGCCCGGAUAAAAGUGGAGGGGGCGG [A1C A23C]
0.12

Reported self-cleavage for AACACUGCCAAUGCCGGCCCCAAGCCCGGAUAAAAGUGGAGGGGGCGC [U18C G48C] : what is it?
0.562

What measured self-cleavage goes with AACACUGCCAUUGCCGGUCCCAAGCCCGGAUAAAAGUGGAGGGGGCAG [A11U G47A] ?
0.937

What value of measured self-cleavage is listed for AAUACUGCCAAUGCCGGUCCCAAGCCCGGAUAAAAGUGGAGGAGGCGG [C3U G43A] ?
0.0963
